ASSAY SYSTEM: cloned human MC4R (Homo sapiens)
Construct: made in house; host or cells: Hi5 insect cells (baculovirus infection); membrane preparation
Sequence (P32245 whole entry): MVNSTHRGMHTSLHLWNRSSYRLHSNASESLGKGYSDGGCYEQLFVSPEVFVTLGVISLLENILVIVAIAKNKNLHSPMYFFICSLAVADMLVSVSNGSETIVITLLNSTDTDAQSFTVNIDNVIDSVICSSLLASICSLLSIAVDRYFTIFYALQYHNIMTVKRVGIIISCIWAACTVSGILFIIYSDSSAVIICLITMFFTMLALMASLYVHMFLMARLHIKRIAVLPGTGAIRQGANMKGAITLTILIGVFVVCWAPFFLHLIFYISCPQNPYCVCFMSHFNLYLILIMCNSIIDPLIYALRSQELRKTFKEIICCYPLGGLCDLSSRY
TEST METHOD NOTES: Membrane binding assay: competitive inhibition of [125I]NDP-α-MSH binding
RECORDED CONDITIONS: read-out: MC4R IC50
pIC50: −log10 of the molar value.
MEASURE: pIC50

Record excerpt, results attached:
compound=Cc1ccccc1-c1ccc(C[C@H](N)C(=O)N2CCN(Cc3cccc(Cl)c3Cl)CC2)cc1 measure=pIC50 data_value="5.52 to 5.82"
compound=N[C@@H](Cc1ccc(OCc2ccc3ccccc3c2)cc1)C(=O)N1CCN(Cc2cccc(Cl)c2Cl)CC1 measure=pIC50 data_value="> 5.82"
compound=N[C@@H](Cc1ccc(OCc2ccccc2)cc1)C(=O)N1CCN(Cc2ccc(OCc3ccc([N+](=O)[O-])cc3)cc2)CC1 measure=pIC50 data_value="> 5.82"

Provide measured pIC50 value, entry: N[C@@H](Cc1ccc(OCc2ccc(Cl)cc2)cc1)C(=O)N1CCN(Cc2cccc(Cl)c2Cl)CC1
> 5.82

Provide measured pIC50 value, entry: Cc1ccc(COc2ccc(C[C@H](N)C(=O)N3CCN(Cc4cccc(Cl)c4Cl)CC3)cc2)cc1
> 5.82
